Examples of molecules with documented GI50 follow.
Test system: RXF 393
TEST: NCI tumour cell line growth inhibition, 48 h
Active and inactive are the calls of the source. Rule as the data show it: active = GI50 up to about 1.1 µM and inactive = higher. *1 amine or outer side, *2 acyl side, *3 side chain or, on linkers, in order; H or OH if unused. Where a SMILES comes first, the peptide text is derived from it. Bridges are numbered along the chain shown (N, C = ends). [ ]: non-standard residue; d: D form. X36 = CC[C@H](C)[C@@H](N[*:1])[C@@H](O)CC(=O)O[C@H](C(=O)[C@H](C)C(=O)[*:2])C(C)C; NMeY = CN[C@@H](Cc1ccc(O)cc1)C(=O)O

MOLECULE: COc1ccc(Br)c(CCCCC(=O)O)c1
GI50: > 100 µM (inactive)

MOLECULE: COc1cc2c(cc1OC)C(=O)/C(=C/c1ccccc1)CC2
GI50: > 100 µM (inactive)

MOLECULE: CSc1cnc2ccccc2c1Sc1c[nH]c2ccccc2c1=O
GI50: 13.7 µM (inactive)

MOLECULE: NC1CC(=O)c2ccccc21 (stereo not drawn)
GI50: > 100 µM (inactive)

MOLECULE: COc1cc(S(=O)(=O)Nc2nc(-c3ccc(N4C(=O)C(CC(=O)O)SC4c4ccccc4O)cc3)cs2)ccc1Cl (stereo not drawn)
GI50: 61.2 µM (inactive)

MOLECULE: O=C1OC2CC=CC1C2 (stereo not drawn)
GI50: > 100 µM (inactive)

MOLECULE: COc1cc2cc(C(=O)N3CC(CCl)c4ccc([N+](C)(C)Cc5ccc([N+](=O)[O-])cc5)cc43)[nH]c2c(OC)c1OC (stereo not drawn)
GI50: 1.36 µM (inactive)

MOLECULE: CC1=NN(c2ccccc2)C(=O)/C1=C\c1c(C)[nH]n(-c2ccccc2)c1=O
GI50: 35.1 µM (inactive)

MOLECULE: CCOP(=O)(OCC)C(=C1C=C(C(C)(C)C)C(=O)C(C(C)(C)C)=C1)P(=O)(OCC)OCC
GI50: 4.97 µM (inactive)

MOLECULE: Cc1cc(O)c2c3c(ccc2c1)C(=O)c1c(O)cccc1C3=O [TETRANGULOL]
GI50: > 100 µM (inactive)

MOLECULE: NC(=O)NOCC1NC(=O)NC1=O (stereo not drawn)
GI50: > 100 µM (inactive)

MOLECULE: O=C1CS(=O)(=O)C(c2cccc(Oc3ccccc3)c2)N1C1CC1 (stereo not drawn)
GI50: 22 µM (inactive)

MOLECULE: Cn1c2ccccc2c(=S)c2ccccc21
GI50: > 100 µM (inactive)

MOLECULE: [O-][S+]1c2ccccc2N=C(c2cccs2)CC1c1ccccc1O (stereo not drawn)
GI50: 63.1 µM (inactive)

MOLECULE: O=C1Sc2ccc(Br)cc2C(=O)Sc2ccccc21
GI50: 4.56 µM (inactive)

MOLECULE: N=C1/C(=C/c2ccco2)C(=O)N=C2SC=NN12
GI50: > 100 µM (inactive)

MOLECULE: NC(=O)NC12CC3CC(CC(F)(C3)C1)C2
GI50: > 100 µM (inactive)

MOLECULE: Cn1c(=O)c2c(nc3n(Cc4ccccc4)c(=O)c(NCCCBr)cn23)n(C)c1=O
GI50: 71 µM (inactive)

MOLECULE: CO/C(=N\N=C\c1ccc(Cl)cc1Cl)c1ccncc1
GI50: > 10 µM (inactive)

MOLECULE: CN(C)CCOC1(Cc2ccc(Cl)cc2Cl)CCC(C(C)(C)C)CC1 (stereo not drawn)
GI50: 1.97 µM (inactive)

MOLECULE: Cc1ccnc(NS(=O)(=O)c2ccc(N=[N+]=[N-])cc2)n1
GI50: > 100 µM (inactive)

MOLECULE: CC[C@H](C)[C@H]1NC(=O)[C@@H](N)[C@@H](C)OC(=O)[C@H](Cc2ccc(OC)cc2)N(C)C(=O)[C@@H]2CCCN2C(=O)[C@H](CC(C)C)NC(=O)[C@@H](C)C(=O)[C@H](C(C)C)OC(=O)C[C@@H]1O (H-T[X36]LP[NMeY](Me); ester 1-C)
GI50: 8.13 µM (inactive)

MOLECULE: O=C(CCN1CCCCC1CO)Nc1ccc2c(c1)C(=O)c1ccc(NC(=O)CCN3CCCCC3CO)cc1C2=O (stereo not drawn)
GI50: 2 µM (inactive)
